Hey, just so you know, these numbers are from patent US10364249B2.

Entries and their measured εmax, molar absorption coefficient follow.
test: Photophysical properties and pKa of DAOTA dyes, fluorescence intensity at different pH, 6% DMSO in PBS buffer; assay type: physicochemical; details: first value of cell, protonated form

compound="CN1c2cccc3c2C2c4c(cccc4N(c4ccc(O)cc4)c4cccc1c42)O3 (stereo not shown)" measured_value="14400 M⁻¹ cm⁻¹"
compound="CN1c2cccc3c2C2c4c(cccc4N(c4cc(C(F)(F)F)ccc4O)c4cccc1c42)O3 (stereo not shown)" measured_value="16600/16600 M^−1cm^−1"
compound="CN1c2cccc3c2C2c4c(cccc4N(c4cccc(O)c4)c4cccc1c42)O3 (stereo not shown)" measured_value="13600 M⁻¹ cm⁻¹"

// next item, εmax, molar absorption coefficient requested
Query: Which measured εmax, molar absorption coefficient value corresponds to CN1c2cccc3c2C2c4c(cccc4N(c4cc(O)cc(C(F)(F)F)c4)c4cccc1c42)O3 (stereo not shown) ?
Result: 14700 M⁻¹ cm⁻¹

* * *

assay: Absorption and emission spectra, photophysical properties of pH-responsive triangulenium dyes in solution; type: physicochemical; settings: on-state (not quenched)
Value Kind: ϕfl- (φfl-on, fluorescence quantum yield, on-state)

Example compounds with recorded ϕfl- (φfl-on, fluorescence quantum yield, on-state):
compound="CCCCCCCCCCCCN1c2cccc3c2C2c4c(cccc4N(c4cc(S(C)(=O)=O)ccc4O)c4cccc1c42)O3 (stereo not shown)" measured_value=26%
compound=Oc1cccc(N2c3cccc4c3C3c5c(cccc5Oc5cccc2c53)O4)c1 measured_value=8%
compound=Oc1ccccc1N1c2cccc3c2C2c4c(cccc4Oc4cccc1c42)O3 measured_value=8%

// next item, ϕfl- (φfl-on, fluorescence quantum yield, on-state) requested
Query: Which measured ϕfl- (φfl-on, fluorescence quantum yield, on-state) value corresponds to Oc1ccc(N2c3cccc4c3C3c5c(cccc5Oc5cccc2c53)O4)cc1 ?
Result: 2%

* * *

assay: Photophysical properties and pKa of DAOTA dyes, fluorescence intensity at different pH, 6% DMSO in PBS buffer; format: physicochemical; details: 6% DMSO in PBS buffer solution; normalized fluorescence intensity at 588 nm at different pH, sigmoidal fits (FIG. 8)
Value Kind: pKa

Example compounds with recorded pKa:
compound="CN1c2cccc3c2C2c4c(cccc4N(c4ccc(O)cc4)c4cccc1c42)O3 (stereo not shown) [MR-93_DAOTA]" measured_value=8.6
compound="CN1c2cccc3c2C2c4c(cccc4N(c4cc(C(F)(F)F)ccc4O)c4cccc1c42)O3 (stereo not shown) [MR-66_DAOTA]" measured_value=6.2
compound="CN1c2cccc3c2C2c4c(cccc4N(c4cc(O)cc(C(F)(F)F)c4)c4cccc1c42)O3 (stereo not shown) [MR-67.1_DAOTA]" measured_value=7.3

// next item, pKa requested
Query: Which measured pKa value corresponds to CN1c2cccc3c2C2c4c(cccc4N(c4cccc(O)c4)c4cccc1c42)O3 (stereo not shown) ?
Result: 8.5

* * *

Entries and their measured λ max, wavelength at the maximum fluorescence intensity follow.
experiment: Photophysical properties and pKa of DAOTA dyes, fluorescence intensity at different pH, 6% DMSO in PBS buffer; assay type: physicochemical; settings: first value of cell, protonated form
Give the value in nm but do not write nm after it.

compound="CN1c2cccc3c2C2c4c(cccc4N(c4cc(O)cc(C(F)(F)F)c4)c4cccc1c42)O3 (stereo not shown)" measured_value=586

// next item, λ max, wavelength at the maximum fluorescence intensity requested
Query: Which measured λ max, wavelength at the maximum fluorescence intensity value corresponds to CN1c2cccc3c2C2c4c(cccc4N(c4cc(C(F)(F)F)ccc4O)c4cccc1c42)O3 (stereo not shown) ?
Result: 585
